- Test system: Serratia marcescens
- procedure details: Antibacterial activity against Serratia marcescens AUMC B-55 assessed as diameter of growth inhibition zone at 20 mg/ml at 28 degC after 48 hrs
- Format: functional
- condition set: AUMC B-55, 48 h, read-out: DIZ
quantity measured: zone of inhibition at 20000 µg/mL (mm)
Quick note: give the figure in mm, leave out the unit.

Answered cases to consult:
compound | zone of inhibition at 20000 µg/mL, mm
Cc1nn(-c2ccccc2)c2nc3c(nc12)/C(=N\O)c1ccccc1-3 | 0
Cc1nn(-c2ccccc2)c2nc3c(nc12)/C(=N/N=C1/NC(=O)CS1)c1ccccc1-3 | 0
Cc1nn(-c2ccccc2)c2nc3c(nc12)/C(=N/N)c1ccccc1-3 | 0
Cc1nn(-c2ccccc2)c2nc3c(nc12)/C(=C/c1ccccc1Cl)c1ccccc1-3 | 0
CCOC(=O)C1S/C(=N\N=C2/c3ccccc3-c3nc4c(nc32)c(C)nn4-c2ccccc2)NC1=O (stereo unspecified) | 0
Cc1nn(-c2ccccc2)c2nc3c(nc12)/C(=N\NC(N)=S)c1ccccc1-3 | 0
CCOC(=O)/C(C#N)=C1\c2ccccc2-c2nc3c(nc21)c(C)nn3-c1ccccc1 | 0
O=C(N[C@H](CO)[C@H](O)c1ccc([N+](=O)[O-])cc1)C(Cl)Cl | 20

Q) zone of inhibition at 20000 µg/mL of `Cc1nn(-c2ccccc2)c2nc3c(nc12)C(=O)c1ccccc1-3` on Serratia marcescens?
A) 0

Q) What zone of inhibition at 20000 µg/mL appears in the records for this compound with Serratia marcescens? `Cc1nn(-c2ccccc2)c2nc3c(nc12)/C(=N/N=c1/[nH]c(-c2ccccc2)cs1)c1ccccc1-3`
A) 0

Q) Could you share what zone of inhibition at 20000 µg/mL was measured for `Cc1nn(-c2ccccc2)c2nc3c(nc12)Cc1ccccc1-3` , tested on Serratia marcescens?
A) 0

---

- Test system: Pseudomonas aeruginosa
- procedure details: Antibacterial activity against Pseudomonas aeruginosa AUMC B-73 g assessed as diameter of growth inhibition zone at 20 mg/ml at 28 degC after 48 hrs
- Type: functional
- condition set: read-out: DIZ
quantity measured: zone of inhibition at 20000 µg/mL (mm)
Could you give me the number in mm? Just the number is fine.

These recorded examples may help you get a feel for the data.
compound | output unit | zone of inhibition at 20000 µg/mL
Cc1nn(-c2ccccc2)c2nc3c(nc12)/C(=N\NC(N)=S)c1ccccc1-3 | mm | 0
CCOC(=O)/C(C#N)=C1\c2ccccc2-c2nc3c(nc21)c(C)nn3-c1ccccc1 | mm | 8
Cc1nn(-c2ccccc2)c2nc3c(nc12)/C(=N/N=C1/NC(=O)CS1)c1ccccc1-3 | mm | 8
Cc1nn(-c2ccccc2)c2nc3c(nc12)/C(=C/c1ccccc1Cl)c1ccccc1-3 | mm | 8
O=C(N[C@H](CO)[C@H](O)c1ccc([N+](=O)[O-])cc1)C(Cl)Cl [CHLORAMPHENICOL] | mm | 18

Q) Lab note: need zone of inhibition at 20000 µg/mL with Pseudomonas aeruginosa for entry `Cc1nn(-c2ccccc2)c2nc3c(nc12)C(=O)c1ccccc1-3` , please look it up.
A) 0

Q) Recall the recorded zone of inhibition at 20000 µg/mL for `Cc1nn(-c2ccccc2)c2nc3c(nc12)/C(=N/N=c1/[nH]c(-c2ccccc2)cs1)c1ccccc1-3` with Pseudomonas aeruginosa and state it.
A) 0

Q) Notebook entry, Pseudomonas aeruginosa assay: zone of inhibition at 20000 µg/mL of CCOC(=O)C1S/C(=N\N=C2/c3ccccc3-c3nc4c(nc32)c(C)nn4-c2ccccc2)NC1=O (stereo unspecified) = ?
A) 8

Q) // lookup zone of inhibition at 20000 µg/mL | system=Pseudomonas aeruginosa | key= `Cc1nn(-c2ccccc2)c2nc3c(nc12)Cc1ccccc1-3`
A) 0

Q) // lookup zone of inhibition at 20000 µg/mL | system=Pseudomonas aeruginosa | key= `Cc1nn(-c2ccccc2)c2nc3c(nc12)/C(=N/N)c1ccccc1-3`
A) 0

Q) For the record `Cc1nn(-c2ccccc2)c2nc3c(nc12)/C(=N\O)c1ccccc1-3` , what value of zone of inhibition at 20000 µg/mL is listed for Pseudomonas aeruginosa?
A) 8
